# System: HCT-15
# experiment.summary: Cytotoxicity against multidrug-resistant human HCT15 cells at 1 uM by thymidine incorporation assay
# Type: functional
Peptide text beside a SMILES is read from it.
Listed here: items and their measured inhibition at 1 µM.

# compound, unit.symbol, inhibition at 1 µM
records = [
    ("CC(C)C[C@@H]1NC(=O)[C@H](Cc2ccccc2)NC(=O)[C@H](CC(C)C)NC(=O)[C@@H](C(C)C)N(C)C(=O)[C@H](CC2CCCCC2)NC1=O (HELM PEPTIDE1{[Cha].[CC(C)[C@H](C(=O)[*:2])N(C)[*:1]].L.F.L}$PEPTIDE1,PEPTIDE1,1:R1-5:R2$$$V2.0)", "%", 60),
    ("CC(C)C[C@@H]1NC(=O)[C@H](CC(C)C)NC(=O)[C@@H](Cc2ccc(O)cc2)NC(=O)[C@H](CC(C)C)NC(=O)[C@H](C(C)C)NC1=O (HELM PEPTIDE1{L.L.V.L.[dY]}$PEPTIDE1,PEPTIDE1,1:R1-5:R2$$$V2.0)", "%", 47),
]
